biological target: STK17A (human) (UniProt Q9UEE5); test: radiometric filter-binding kinase assay, Kinase HotSpot; details: compound 0.5 µM; ATP 10 µM
Sequence (Q9UEE5 whole entry, looked up): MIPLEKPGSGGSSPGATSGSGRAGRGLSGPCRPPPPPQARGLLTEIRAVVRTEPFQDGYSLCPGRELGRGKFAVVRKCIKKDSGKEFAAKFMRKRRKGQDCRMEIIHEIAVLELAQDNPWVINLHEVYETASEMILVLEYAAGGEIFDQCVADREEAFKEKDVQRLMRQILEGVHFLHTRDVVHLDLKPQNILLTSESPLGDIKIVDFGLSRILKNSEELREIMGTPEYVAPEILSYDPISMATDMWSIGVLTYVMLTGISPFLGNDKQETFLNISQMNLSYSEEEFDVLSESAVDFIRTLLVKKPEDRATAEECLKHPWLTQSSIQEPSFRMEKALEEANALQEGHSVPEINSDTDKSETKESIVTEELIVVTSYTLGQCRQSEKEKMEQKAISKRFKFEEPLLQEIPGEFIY
Readout kind: residual activity (%)

> print(dat)
                                    molecule                  target.of.assay  quantitative.result
 1   CC(C)n1cnc2c(Nc3cccc(Cl)c3)nc(NCCO)nc21  STK17A (human) (UniProt Q9UEE5)                 96.8
 2  COc1cc2ncnc(Nc3ccc(F)c(Cl)c3)c2cc1OCCCN1CCOCC1  STK17A (human) (UniProt Q9UEE5)                   96
 3  CSc1nc(-c2ccc(F)cc2)c(-c2ccnc(NC(C)c3ccccc3)c2)[nH]1 (stereo unspecified)  STK17A (human) (UniProt Q9UEE5)                 97.8
 4  Nc1nc(Nc2ccc(S(N)(=O)=O)cc2)nn1C(=S)Nc1c(F)cccc1F  STK17A (human) (UniProt Q9UEE5)                 11.1
 5  CC(C)[C@H](CO)Nc1nc(Nc2cccc(Cl)c2)c2ncn(C(C)C)c2n1  STK17A (human) (UniProt Q9UEE5)                   95
 6  O=C1Cc2c([nH]c3ccc([N+](=O)[O-])cc23)-c2ccccc2N1  STK17A (human) (UniProt Q9UEE5)                 46.4
 7           CCN1/C(=C/C(C)=O)Sc2ccc(OC)cc21  STK17A (human) (UniProt Q9UEE5)                 99.3
 8  O=C1Nc2cc(Br)ccc2/C1=C1/Nc2ccccc2/C1=N\O  STK17A (human) (UniProt Q9UEE5)                 49.2
 9  O=c1cc(-c2cccc3c2Sc2ccccc2S3)oc(N2CCOCC2)c1  STK17A (human) (UniProt Q9UEE5)                 98.2
10  COc1cc2nccc(Oc3ccc(NC(=S)NC(=O)c4ccccc4C)cc3)c2cc1OC  STK17A (human) (UniProt Q9UEE5)                 82.3
11      O=C(Nc1ccc(Cl)cc1)c1ccccc1NCc1ccncc1  STK17A (human) (UniProt Q9UEE5)                 94.7
12  Oc1ccc(-c2nc(-c3ccc(F)cc3)c(-c3ccncc3)[nH]2)cc1  STK17A (human) (UniProt Q9UEE5)                  101
13  O=C(NC(NC(=S)Nc1ccc(F)c([N+](=O)[O-])c1)C(Cl)(Cl)Cl)C(c1ccccc1)c1ccccc1 (stereo unspecified)  STK17A (human) (UniProt Q9UEE5)                 99.8
14   O=C1Nc2ccccc2/C1=C\c1c(Cl)[nH]c2ccccc12  STK17A (human) (UniProt Q9UEE5)                 95.2
15               Cc1cc2ncc(-c3ccccc3)nc2cc1C  STK17A (human) (UniProt Q9UEE5)                   80
16  C#Cc1cccc(Nc2ncnc3cc(OCCOC)c(OCCOC)cc23)c1  STK17A (human) (UniProt Q9UEE5)                 99.7
17  CC(C)(C)c1nc2c3ccc(F)cc3c3c(=O)[nH]ccc3c2[nH]1  STK17A (human) (UniProt Q9UEE5)                 6.42
18      COc1ccc(-c2cnc3c(-c4ccsc4)cnn3c2)cc1  STK17A (human) (UniProt Q9UEE5)                 91.6
19  Cc1ccc(NC(=O)c2ccc(CN3CCN(C)CC3)cc2)cc1Nc1nc(-c2cccnc2)cs1  STK17A (human) (UniProt Q9UEE5)                  104
20     O=c1cc(N2CCNCC2)oc2c(-c3ccccc3)cccc12  STK17A (human) (UniProt Q9UEE5)                 98.4
21    Clc1ccc(Nc2nnc(Cc3ccncc3)c3ccccc23)cc1  STK17A (human) (UniProt Q9UEE5)                 99.4
22  NC(=O)c1ccc(N(C(N)=O)c2c(F)cccc2F)nc1-c1ccc(F)cc1F  STK17A (human) (UniProt Q9UEE5)                  100
23  CCCNC(=O)Nc1ccc(Oc2ncnc3cc(OC)c(OC)cc23)cc1Cl  STK17A (human) (UniProt Q9UEE5)                   99
24  CS(=O)c1ccc(-c2nc(-c3ccc(F)cc3)c(-c3ccncc3)[nH]2)cc1 (stereo unspecified)  STK17A (human) (UniProt Q9UEE5)                 98.9
25  Nc1nc(Nc2ccc(S(N)(=O)=O)cc2)nn1C(=O)c1c(F)cccc1F  STK17A (human) (UniProt Q9UEE5)                 83.9
26  Nc1n[nH]c2nnc(-c3c(-c4ccccc4)nn4ccccc34)cc12  STK17A (human) (UniProt Q9UEE5)                 99.9
